B1: glmS ribozyme (parent)
chain: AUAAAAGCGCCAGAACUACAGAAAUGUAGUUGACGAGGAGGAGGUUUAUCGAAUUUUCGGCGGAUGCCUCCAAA

Variants of: B1
Experiment: self-cleavage kobs at 2500 uM GlcN6P; higher = faster cleavage; RNA array
Details: with glucosamine-6-phosphate
This sample holds only a part of the variants without activity.
RESULT_TYPE: self-cleavage kobs at 2500 uM GlcN6P

Query string: Which value of self-cleavage kobs at 2500 uM GlcN6P has been reported for G37C G41C in the records?
Result string: < 1e-05 s⁻¹

Query string: Another variant to check: C34U A36G
Result string: < 1e-05 s⁻¹

Query string: Also check C34A G41A
Result string: < 1e-05 s⁻¹

Query string: Then C8A G60A C68A ?
Result string: < 1e-05 s⁻¹

Query string: Could you do the same for G44C G62A C68G , please?
Result string: < 1e-05 s⁻¹

Query string: # repeat for G13A C34A A39G G59A G62C
Result string: < 1e-05 s⁻¹

Query string: Param item: U31G A33G U56C
Result string: < 1e-05 s⁻¹

Query string: Proceed to A52U A53C C67G
Result string: < 1e-05 s⁻¹

Query string: How about this variant: G29A C50A C67G
Result string: 8.63e-05 s⁻¹

Query string: Next variant: G41C C67G
Result string: < 1e-05 s⁻¹

Query string: Item: A52G A53U
Result string: 0.000176 s⁻¹

Query string: Also G32U A42G C58G C70U ?
Result string: 0.000198 s⁻¹

Query string: Continue with G59U A64C G66C
Result string: < 1e-05 s⁻¹
